# assay remarks: Mouse Reverse Passive Arthus reaction (RPA reaction)
# Format: in vivo, C57BL/6 mice
# reported conditions: oral, 100 mg/kg, pretreatment time 0.5 hrs + 4 hours
readout: Plasma Concentration ± SEM (ng/ml) Exposure = Pretreatment Time + 4 hours (ng/mL)
The reply should be a number in ng/mL, with the unit left off.

Consider the following illustrative entries.
{"columns": ["compound", "numeric readout"],
 "data": [
  ["CC1(C)Oc2ccc(Nc3ncc(F)c(Nc4ccc5c(c4)NC(=O)C(C)(C)O5)n3)cc2NC1=O [Compound R940350]", 176],
  ["COc1cc(Nc2ncc(F)c(Nc3ccc4c(c3)NC(=O)C(C)(C)O4)n2)cc(OC)c1 [Compound R927050]", 619],
  ["Fc1cnc(Nc2ccc3cn[nH]c3c2)nc1Nc1ccc(Cl)c(Cl)c1 [Compound R935372]", 0.6]
]}

Here is the next item to consider.
What measured Plasma Concentration ± SEM (ng/ml) Exposure = Pretreatment Time + 4 hours goes with CC1(C)Oc2ccc(Nc3nc(Nc4ccc5cn[nH]c5c4)ncc3F)cc2NC1=O [Compound R940363] ?
32
